The reader will find reported transport percentage values listed item by item below.
System: everted gut sacs (jejunum)
Assay Explanation: Absorption experiment with everted gut sacs
Stated Conditions: Everted gut sacs, extract 30 mg/mL, AP→BL
# number only, unit % dropped from output

O=c1cc(-c2ccc(O)c(O)c2)oc2c(C3OC(CO)C(O)C(O)C3OC3OC(CO)C(O)C(O)C3O)c(O)cc(O)c12 [2″-O-β-L-galactopyranosylorientin] :: 9.25
O=C1CC[C@H]2c3cc(O)c(O)cc3CCN12 [trolline] :: 30.00

Enquiry: Fill in the blank: the reported transport percentage of COc1ccc(C(=O)O)cc1OC [veratric acid] is ____.
Return: 28.12

Enquiry: Entry under review: O=c1cc(-c2ccc(O)c(O)c2)oc2c([C@@H]3O[C@H](CO)[C@@H](O)[C@H](O)[C@H]3O)c(O)cc(O)c12 [orientin] . Reported transport percentage?
Return: 6.75

Enquiry: What transport percentage value was documented for this compound, O=c1cc(-c2ccc(O)cc2)oc2c([C@@H]3O[C@H](CO)[C@@H](O)[C@H](O)[C@H]3O)c(O)cc(O)c12 [vitexin] ?
Return: 7.55

Enquiry: I have this compound here, COc1cc(C(=O)O)cc(CC=C(C)C)c1O [proglobeflowery acid] , and I need its recorded transport percentage.
Return: 11.61
